# Test system: PC-3 prostate cancer cell line
# testMethodNotes: MTT cell viability assay, PC-3
# Assay type: cell-based
# assayConditions: Homo sapiens, treatment 72 h and 96 h, mean ± SD of three experiments
pIC50: −log10 of the molar value.
assayEndpoint: pIC50

compound	pIC50
COc1cc(Nc2nccc3c(-c4ccccc4)c[nH]c23)cc(OC)c1OC [14c]	6.33
Fc1cccc(-c2c[nH]c3c(Nc4ccccc4)ncnc23)c1 [26b]	5.71
COc1cccc2c1C(=O)c1c(O)c3c(c(O)c1C2=O)C[C@@](O)(C(=O)CO)C[C@@H]3O[C@H]1C[C@H](N)[C@H](O)[C@H](C)O1 [Dox, Doxorubicin, reference compound]	7.60

A: CN1CCN(c2nccc3c(-c4cccc(F)c4)c[nH]c23)CC1 [14f]
B: c1ccc(Nc2ncnc3c(-c4ccccc4)c[nH]c23)cc1 [26a]
Lower value of pIC50 belongs to which: A or B ? Answer by stating the label of the chosen item.
B
(B: 5.21, A: 5.63)

All values here come from paper PMC8746528.
